# Tested on: COLO 205 colon
# Assay overview: NCI tumour cell line growth inhibition, 48 h
Below: a set of entries, each annotated with reported TGI.

Below, 4 compounds whose answers are already recorded.
Compound	Recorded result
CCCCCc1cc(/C=C2/N=C(c3ccc[nH]3)C=C2OC)[nH]c1C	0.0483 µM
O=S(=O)(O)c1c(Cl)c(Cl)c(O)c2ncccc12	31.8 µM
C#CN1C(=O)c2c(c(-c3ccccc3)c(-c3ccc(Oc4ccc(-c5c(-c6ccccc6)c6c(c(-c7ccccc7)c5-c5ccccc5)C(=O)N(C#C)C6=O)cc4)cc3)c(-c3ccccc3)c2-c2ccccc2)C1=O	> 100 µM
CN1N=C(c2ccncc2)OC1c1cccc(F)c1 (stereo not given)	> 100 µM

API: the following record is the query input.
### Prompt Value lookup for TGI; key = CC(=O)Oc1ccc2c(=O)c(C(C)=O)coc2c1
### Response > 100 µM

====

# System: DU-145 prostate
# Assay overview: NCI tumour cell line growth inhibition, 48 h
Property: TGI (µM)
Give just the numeric value; µM need not be written.

Structure as smiles	Study target	TGI [µM]
CCc1ccc(Oc2c(-c3ccc(OCCc4cccc(C(F)(F)F)c4)cc3O)n[nH]c2C(F)(F)F)cc1	DU-145 prostate	8.35
CC1=CC2(C)C=C[C@@H]1C(=O)[C@@]1(C)CC[C@@](O)(C(C)C)[C@H]1CC2	DU-145 prostate	72.1
COc1ccccc1CNCCCN1C(=O)c2ccc3c4c(ccc(c24)C1=O)C(=O)N(CCCNCCCCNCCCN)C3=O	DU-145 prostate	2.03

API: the following record is the query input.
### Prompt Value lookup for TGI; key = C=C(C)[C@@H]1CC[C@]2(C(=O)O)CC[C@]3(C)[C@H](CC[C@@H]4[C@@]5(C)C/C(=C/c6ccco6)C(=O)C(C)(C)[C@@H]5CC[C@]43C)[C@@H]12
### Response 12.2

====

# Test system: SK-MEL-5 melanoma
# Assay overview: NCI tumour cell line growth inhibition, 48 h
Property: GI50

Below, 5 compounds whose answers are already recorded.
Compound	GI50
CCCCCCCCCCCCC(O)C1CCC(C(O)CCCCC(O)CCCCCC2CC(CC(C)=O)C(=O)O2)O1 (stereo not given)	112 nM
CC(=O)OC(C(=O)[O][Ge]([CH3])([CH3])[CH3])c1ccccc1 (stereo not given)	> 100000 nM
CC1(C)CC[C@]23CC[C@]4(C)[C@H](CC[C@@H]5[C@@]6(C)CCCNC(C)(C)[C@@H]6CC[C@]54C)[C@H]2[C@H]1OC3	1690 nM
Cc1ccc(NC(=S)NNC(=S)Nc2ccc(C)cc2)cc1	4360 nM
Nc1nc2ccc(CNc3ccc(C(=O)NC(CC(=O)O)C(=O)O)cc3)cc2c(=O)[nH]1 (stereo not given)	5350 nM

### Prompt Value lookup for GI50; key = COc1cc2c(Nc3ccc(-c4ccc(N)cc4)cc3)ncnc2c(OC)c1OC
### Response 1940 nM

### Prompt Value lookup for GI50; key = Cn1c2c(c3ccccc31)CCN1C[C@@H]3CCCC[C@H]3C[C@@H]21
### Response 1420 nM

### Prompt Value lookup for GI50; key = CO/N=C(/C)COc1ccc2c(c1)oc(=O)c1cc(OC)ccc12
### Response > 100000 nM

### Prompt Value lookup for GI50; key = O=C(Cc1cc(O)ccc1O)NO
### Response > 100000 nM

### Prompt Value lookup for GI50; key = CCCCCCCCCCCCCCCC(=O)NS(=O)(=O)OC[C@H]1O[C@@H](n2cnc3c(N)ncnc32)[C@H](O)[C@@H]1O
### Response 234 nM

### Prompt Value lookup for GI50; key = O=C(/C=C(/C=C/c1cccc2[nH]ccc12)OB(F)F)/C=C/c1cccc2[nH]ccc12
### Response 1260 nM

====

# Test system: IGROV1 ovarian
# Assay overview: NCI tumour cell line growth inhibition, 48 h
Below: a set of entries, each annotated with reported TGI.

Below, 3 compounds whose answers are already recorded.
> print(dat)
                                   compound  recorded.result
1  COc1ccccc1/C=C1\CCC(Cc2ccccc2)(CN(C)C)C1=O (stereo unspecified)        > 41.2 µM
2  COc1cc(-c2oc3c(OC)c(O)c(OC)c(O)c3c(=O)c2OC)cc(OC)c1OC         > 100 µM
3  CC(=O)Oc1ccc2c(c1)[nH]c1c3ccc(OC(C)=O)cc3oc(=O)c21         > 100 µM

### Prompt Any idea what TGI came out for COC1(OC)CCN(Cc2ccccc2)C1=O on IGROV1 ovarian?
### Response 26.8 µM

### Prompt Any idea what TGI came out for Nc1nc2ccc(CNc3ccc(C(=O)NC(CC(=O)O)C(=O)O)cc3)cc2c(=O)[nH]1 (stereo unspecified) on IGROV1 ovarian?
### Response > 100 µM

### Prompt Any idea what TGI came out for COc1ccc(OC)c(C2=C(c3cn(C)c4ccccc34)C(=O)NC2=O)c1 on IGROV1 ovarian?
### Response > 25 µM

### Prompt Any idea what TGI came out for CCOC(=O)c1c2ccccc2n2c(=O)n(-c3ccc(OC)cc3)nnc12 on IGROV1 ovarian?
### Response > 100 µM

### Prompt Any idea what TGI came out for CCOC(=O)c1c(-c2ccccc2)n2c(=O)cc(C)c3c(O)c(O)cc1c32 on IGROV1 ovarian?
### Response 19.2 µM

### Prompt Any idea what TGI came out for Cc1nc(C)c(N2CCN(Cc3ccccc3)CC2)c(=O)[nH]1 on IGROV1 ovarian?
### Response > 100 µM

### Prompt Any idea what TGI came out for C1=NN2C(c3ccccc3)=NOC2C2C(c3ccccc3)=NOC12 (stereo unspecified) on IGROV1 ovarian?
### Response > 100 µM

### Prompt Any idea what TGI came out for O=C(c1ccccc1)n1cc(/C=C/[N+](=O)[O-])c2ccccc21 on IGROV1 ovarian?
### Response 54.7 µM

====

Below: a set of entries, each annotated with reported TGI.
# Tested on: OVCAR-4 ovarian
# Assay overview: NCI tumour cell line growth inhibition, 48 h
Give just the numeric value; µM need not be written.

Below, 2 compounds whose answers are already recorded.
> print(dat)
                        structure.as.smiles  unit  recorded.result
1  CCOC(=O)C(C(=O)OCC)c1cc(-c2cc3ccccc3o2)oc(=O)c1C#N    µM             71.4
2  COc1ccc2[nH]c(C(=O)OCc3ccc4c(Br)cc(Br)c(O)c4n3)cc2c1    µM             2.25

### Prompt Any idea what TGI came out for Cn1cc(-c2csc(-c3ccccc3)n2)c2cccnc21 on OVCAR-4 ovarian?
### Response 71.4

### Prompt Any idea what TGI came out for CCCCCCCCCCCCCCCC(=O)NS(=O)(=O)OC[C@H]1O[C@@H](n2cnc3c(N)ncnc32)[C@H](O)[C@@H]1O on OVCAR-4 ovarian?
### Response 0.255

====

Below: a set of entries, each annotated with reported TGI.
# Tested on: MDA-N
# Assay overview: NCI tumour cell line growth inhibition, 48 h

> print(dat)
                                   compound  property  recorded.result
1          CCOC(=O)C#Cc1cccc(C#CC(=O)OCC)c1       TGI          6.44 µM
2  COC(=O)CN1Cc2cc(C)cc(c2O)CN(CC(=O)OC)Cc2cc(C)cc(c2O)CN(CC(=O)OC)Cc2cc(C)cc(c2O)CN(CC(=O)OC)Cc2cc(C)cc(c2O)C1       TGI         > 100 µM
3  Cc1cn(C2CC(O)C(Cn3nncc3Cn3cnc4c(N)ncnc43)O2)c(=O)[nH]c1=O (centres undefined)       TGI         > 100 µM
4  O=C(Nn1c(-c2ccccc2)nc2ccccc2c1=O)c1cccc([N+](=O)[O-])c1       TGI         > 100 µM
5  OC1C2CCCCN2C[C@@H](O)[C@H]1O (some centres undefined)       TGI         > 100 µM
6  COc1ccc(COCC[C@H](C)OC2OC(CO[Si](C)(C)C(C)(C)C)C(O)C(O)C2O)cc1 (some centres undefined)       TGI         > 100 µM

### Prompt Value lookup for TGI; key = COC(=O)[C@]12CC[C@H]3CN(S(=O)(=O)c4ccc(C)cc4)[C@H]([C@H]31)[C@H](c1ccco1)N2S(=O)(=O)c1ccc(C)cc1
### Response 73.7 µM

### Prompt Value lookup for TGI; key = COc1cc(-c2oc3c(OC)c(O)c(OC)c(O)c3c(=O)c2OC)cc(OC)c1OC
### Response > 100 µM

### Prompt Value lookup for TGI; key = COC1(OC)CCN(Cc2ccccc2)C1=O
### Response 22.6 µM
